molecular target: T1, SARS-CoV-2 WT-RBD (SARS-CoV-2, UniProt P0DTC2); assay: BLI; conditions: both partners purified
T1 construct: not shown: 6-His, C-terminal, kept
MEASURED_METRIC: binding result

[[record]]
binder = "2-15 (antibody, V domains shown, IgG1; IGHV1-2) VH: QVQLVQSGAEVKKPGASVRVSCKASGYTFTGYYMHWVRQAPGQGLEWMGWINPISDGTNYAQKFQGWVTMTRDTSISTVYMELSRLRSDDTAVYYCARGGSRCSGGNCYGWAYDAFDIWGQGTMITVSS VL: QSALTQPASVSGSPGQSITISCTGTSSDVGGYNFVSWYQQHPGKAPKLMIYDVSKRPSGVSNRFSGSKSGNTASLTISGLQAEDEADCYCSSYTSSSTFVFGTGTKVTVL"
assay_result = "binds"

[[record]]
binder = "C548 (antibody, V domains shown, IgG1; IGHV1-69-encoded) VH: QVQLVQSGAEVKKPGSSVKVSCKASGGTFSSYAISWVRQAPGQGLEWMGGIIPIFGTANYAQKFQGRVTITADESTSTAYMELSSLRSEDTAVYYCARREAYGPRDYYYYYGMDVWGQGTTVTVSS VL: QSALTQPPSASASLGASVTLTCTLSSGYSNYKVDWYQQRPGKGPRFVMRVGTGGIVGSKGDGIPDRFSVLGSGLNRYLTIKNIQEEDESDYHCGADQGSGSNFVGVFGGGTKLTVG"
assay_result = "binds"

[[record]]
binder = "A19-61.1 (antibody, V domains shown, IgG1; IGHV3-30) VH: QVQLVESGGGVVQPGRSLRLSCAASGFTFSSYAFHWVRQAPGKGLEWVAVISYDGSNQYYADSVKGRFTISRDNSKNTLYLQMNSLRADDTAVYYCARDLAIAVAGTWHYYNGMDVWGQGTTVTVSS VL: DIQMTQSPSSVSASVGDRVIITCRASQGISSWLAWYQQKPGKAPKVLIYDASSLQSGVPSRFSGSGYGTDFTLTISSLQPEDSATYYCQQAKSFPITFGQGTRLEIK"
assay_result = "binds"

